Assay: growth suppression of beta-catenin knockout HCT116, pilot screen, human colon tumor cells (AID 823);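 also: 0% = wells killed by 20 µM Hyamine and 100% = untreated DMSO cell wells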
Settings: CellTiter-Glo, 60 h, at 10 µM, stronger effect = lower value
Records with an inconclusive call do not appear.
# viability per record follows
// units = %; emit number, no label

COc1ccc(Cl)cc1Nc1nc(N2CCCC2)nc(N2CCCC2)n1 = 95.5

Query string: Return value of viability for input CCCCNC(=O)CS(=O)Cc1nc(-c2cccs2)oc1C (centres undefined) , no commentary.
Result string: 97.6

----------
Assay: 384-well plate pilot, post-Golgi transport modulator project, inhibition of yeast transport mutant growth (AID 636)
Conditions: absorbance 615 nm, about 18 h, stronger effect = higher value
# inhibition per record follows
// units = %; emit number, no label

Query string: Return value of inhibition for input Cc1cccc(OCC(=O)N(Cc2cccs2)C2CCS(=O)(=O)C2)c1C (stereo not given) , no commentary.
Result string: -6.35

Query string: Return value of inhibition for input Cc1cc2n(n1)C(c1ccccc1)Nc1ccccc1-2 (stereo not given) , no commentary.
Result string: -6
